# INHIBITION per record follows
Test system: Plasmodium berghei
assay details: Screen against P. berghei liver stage (PbLuc), transformed with Luciferase, at 10uM
Format: functional, HepG2
test conditions: tested at 10 uM
The campaign covered roughly 69,000 compounds. About 8,600 (12%) showed an effect of 50% or more. The sample as a whole holds a higher share of strong results than the screen did.
Note: a bare number is incomplete; add the unit.

A selection of reference data follows.
COc1ccc(F)c(CN2CCCC3(CCN(S(C)(=O)=O)C3)C2)c1 (centres undefined) : 47%
Cc1cc(N2CCc3c(ncn3C)C2)nc(N)n1 : -14.9%
c1cc(CN2CCOCC3(CCN(CC4CCOCC4)CC3)C2)ccn1 : 39.2%

Q: Observed INHIBITION on Plasmodium berghei for `c1cc(CN2CCOCC3(CCNCC3)C2)ccn1` , please.
A: 63.7%
